- PROTOCOL: Pharmacokinetic interaction study between SOR and DAPA in rats (oral gavage, plasma by UPLC-MS/MS)
- CONDITION PARAMETERS: male, Sprague-Dawley, rat, plasma, po, 100 mg/kg, CLz/F, SOR 100 mg/kg oral, alone, n = 6
ENDPOINT: CL/F (mL/min/kg)
Numbers only here, please. The scale is mL/min/kg.

Q: Name the reported CL/F value associated with the compound CNC(=O)c1cc(Oc2ccc(NC(=O)Nc3ccc(Cl)c(C(F)(F)F)c3)cc2)ccn1
A: 28.2

----------
- PROTOCOL: Pharmacokinetic interaction study between SOR and DAPA in rats (oral gavage, plasma by UPLC-MS/MS);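 note: parameters derived by non-compartmental analysis of plasma concentration–time data, with analyte levels measured by UPLC-MS/MS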
- CONDITION PARAMETERS: male, Sprague-Dawley, rat, plasma, po, 100 mg/kg, t1/2z, SOR 100 mg/kg oral, alone, n = 6
ENDPOINT: half-life (h)
Expressed in h, but write only the number.

Q: Report half-life for CNC(=O)c1cc(Oc2ccc(NC(=O)Nc3ccc(Cl)c(C(F)(F)F)c3)cc2)ccn1 please.
A: 17.5
